Test: physical-chemical properties of CD5-targeted tLNP encapsulating mCherry mRNA
Type: physicochemical
Conditions: anti-CD5 tLNP; DLS
Consider the following compounds and their measured PDI (polydispersity index) readings.
quantity: PDI (polydispersity index)

> print(dat)
                                   compound  measured.number
1  CCCCCCCCC(=O)OCC(COC(=O)CCCCCCCC)CC(=O)OCCN(CCOC(=O)CC(COC(=O)CCCCCCCC)COC(=O)CCCCCCCC)C(=O)N(C)CCN(C)C [Compound A-14]             0.05
2  CCCCCCCCCC(=O)OCC(COC(=O)CCCCCCCCC)CC(=O)OCCN(CCOC(=O)CC(COC(=O)CCCCCCCCC)COC(=O)CCCCCCCCC)C(=O)NCCCN(C)C [Compound A-2]             0.20
3  CCCCCCCCC(=O)OCC(COC(=O)CCCCCCCC)CC(=O)OCCN(CCOC(=O)CC(COC(=O)CCCCCCCC)COC(=O)CCCCCCCC)C(=O)OCCCN(C)C [Compound A-12]             0.07
4  CCCCCCCCC(=O)OCC(COC(=O)CCCCCCCC)CC(=O)OCCN(CCOC(=O)CC(COC(=O)CCCCCCCC)COC(=O)CCCCCCCC)C(=O)NCCN(C)C [Compound A-13]             0.10
5  CCCCCCCCC(=O)OCC(COC(=O)CCCCCCCC)CC(=O)OCCN(CCOC(=O)CC(COC(=O)CCCCCCCC)COC(=O)CCCCCCCC)C(=O)N(C)CCCN(C)C [Compound A-15]             0.15
